Reported pIC50 values follow for various binders
- assayed.target: T1, human IL-2Rγc (CD132 protein, Fc Tag) (23-254) (human, UniProt P31785 23-254)
- T1 construct: range 23-254; Bought protein; also called IL-2Rγc subunit; γc subunit; not shown: Fc Tag of the bought protein (ACRObiosystems ILG-H5256)
- T1 sequence (looked up): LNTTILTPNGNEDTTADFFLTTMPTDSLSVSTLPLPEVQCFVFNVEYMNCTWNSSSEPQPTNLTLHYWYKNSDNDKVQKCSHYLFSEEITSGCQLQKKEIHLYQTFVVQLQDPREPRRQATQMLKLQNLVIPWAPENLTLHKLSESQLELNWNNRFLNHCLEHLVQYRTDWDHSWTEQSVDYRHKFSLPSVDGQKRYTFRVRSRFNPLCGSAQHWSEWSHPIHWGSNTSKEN
- procedure.text: IC50, method not told in the paragraph
pIC50: −log10 of the molar value. Ends that are not written are not given here.

Consider the reported pIC50 for these binders:
RTCTEWENVVLCWV (not fully specified; cysteine pairing not given here) [IL-2Rγc ligand SEQ ID NO: 202]    > 5.00
KVCEMWGGVLLCWN [IL-2Rγc ligand SEQ ID NO: 198]    > 5.00
DLSDLSTFWLSQ (not fully specified, Family 3; also called 248 or 1051) [IL-2Rγc ligand SEQ ID NO: 1051]    > 5.00
MCWLEWGEWVGSCL [IL-2Rγc ligand SEQ ID NO: 236]    > 5.00
DCSMWEGVELCW (also called Peptide F) [IL-2Rγc ligand SEQ ID NO: 224]    > 5.00

[in] I am curious: what pIC50 value has been reported for CPSMLQGPERTWVC [IL-2Rγc ligand SEQ ID NO: 266] ?
[out] > 5.00

[in] Now consider SLLKCYNASTCASVF [IL-2Rγc ligand SEQ ID NO: 948] and answer again.
[out] > 5.00

Measured values drawn from patent US20230192767A1 for this set.
